# study target: T1, TRCW5 antigen (CD3δε-Fc-Avi) (biotinylated (site not stated))
# T1 construct: also called recombinant CD3
# T1 sequence (chain, as listed by the source mutant limits assumed): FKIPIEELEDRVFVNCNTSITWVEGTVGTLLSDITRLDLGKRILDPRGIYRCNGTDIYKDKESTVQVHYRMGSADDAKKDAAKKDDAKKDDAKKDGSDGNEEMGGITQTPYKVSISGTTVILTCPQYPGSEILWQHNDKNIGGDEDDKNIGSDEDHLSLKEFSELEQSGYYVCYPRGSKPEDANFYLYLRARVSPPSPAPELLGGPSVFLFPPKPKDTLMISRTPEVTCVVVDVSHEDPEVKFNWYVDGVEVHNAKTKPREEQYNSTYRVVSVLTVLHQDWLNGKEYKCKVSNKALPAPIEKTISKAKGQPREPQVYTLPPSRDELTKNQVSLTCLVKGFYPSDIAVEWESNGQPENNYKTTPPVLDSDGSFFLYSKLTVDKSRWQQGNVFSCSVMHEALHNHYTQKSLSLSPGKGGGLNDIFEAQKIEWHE
# protocol description: ELISA
recorded endpoint: EC50 (nM)
Value expressed in nM; do not type the unit.

Known results for binders:
[
  {
    "binder": "CD3B2051 N106R (scFv) scFv: QVQLVQSGAEVKKPGSSVKVSCKASGYTFTRSTMHWVKQAPGQGLEWMGYINPSSAYTNYNQKFQGRVTLTADKSTSTAYMELSSLRSEDTAVYYCASPQVHYDYRGFPYWGQGTLVTVSSGGSEGKSSGSGSESKSTGGSEIVLTQSPATLSASPGERVTLSCSASSSVSYMNWYQQKPGQAPRRLIYDSSKLASGVPARFSGSGSGRDYTLTISSLEPEDFAVYYCQQWSRNPPTFGGGTKVEIK",
    "quantity unit": "nM",
    "EC50": 11.2
  },
  {
    "binder": "CD3B2030 N106L (scFv) scFv: QVQLVQSGAEVKKPGSSVKVSCKASGYTFTRSTMHWVKQAPGQGLEWIGYINPSSAYTNYNQKFQGRVTLTADKSTSTAYMELSSLRSEDTAVYYCASPQVHYDYLGFPYWGQGTLVTVSSGGSEGKSSGSGSESKSTGGSEIVLTQSPATLSASPGERVTLSCSASSSVSYMNWYQQKPGQAPRRWIYDSSKLASGVPARFSGSGSGRDYTLTISSLEPEDFAVYYCQQWSRNPPTFGGGTKVEIK",
    "quantity unit": "nM",
    "EC50": 11.4
  },
  {
    "binder": "CD3B2051 (scFv) scFv: QVQLVQSGAEVKKPGSSVKVSCKASGYTFTRSTMHWVKQAPGQGLEWMGYINPSSAYTNYNQKFQGRVTLTADKSTSTAYMELSSLRSEDTAVYYCASPQVHYDYNGFPYWGQGTLVTVSSGGSEGKSSGSGSESKSTGGSEIVLTQSPATLSASPGERVTLSCSASSSVSYMNWYQQKPGQAPRRLIYDSSKLASGVPARFSGSGSGRDYTLTISSLEPEDFAVYYCQQWSRNPPTFGGGTKVEIK",
    "quantity unit": "nM",
    "EC50": 8.73
  },
  {
    "binder": "CD3B2030 N106S (scFv) scFv: QVQLVQSGAEVKKPGSSVKVSCKASGYTFTRSTMHWVKQAPGQGLEWIGYINPSSAYTNYNQKFQGRVTLTADKSTSTAYMELSSLRSEDTAVYYCASPQVHYDYSGFPYWGQGTLVTVSSGGSEGKSSGSGSESKSTGGSEIVLTQSPATLSASPGERVTLSCSASSSVSYMNWYQQKPGQAPRRWIYDSSKLASGVPARFSGSGSGRDYTLTISSLEPEDFAVYYCQQWSRNPPTFGGGTKVEIK",
    "quantity unit": "nM",
    "EC50": 19.1
  }
]

Consider the record given below.
## Task Give EC50 for CD3B2051 N106V (scFv) scFv: QVQLVQSGAEVKKPGSSVKVSCKASGYTFTRSTMHWVKQAPGQGLEWMGYINPSSAYTNYNQKFQGRVTLTADKSTSTAYMELSSLRSEDTAVYYCASPQVHYDYVGFPYWGQGTLVTVSSGGSEGKSSGSGSESKSTGGSEIVLTQSPATLSASPGERVTLSCSASSSVSYMNWYQQKPGQAPRRLIYDSSKLASGVPARFSGSGSGRDYTLTISSLEPEDFAVYYCQQWSRNPPTFGGGTKVEIK
## Result 15.2
